assay procedure: log P determination by HPLC (EEC Directive 79/831 Annex V.A8, gradient method)
Assay type: physicochemical
property: Physical data (logP)
Would you mind answering with just the numeric figure?

O=Cc1c(-c2ccc(Oc3ccc(Cl)cc3)cc2)nc2sc(C(F)(F)F)nn12 ... 4.56

Query string: Physical data (logP) for CCC(NC(=O)/C=C/c1c(-c2ccc(Cl)cc2)nc2sc(C(F)(F)F)nn12)C1CCCCC1 (centres unmarked) ?
Result string: 5.31

Query string: Then what about the compound `O=C(O)/C=C/c1c(-c2ccc(-c3ccc(Cl)cc3)cc2)nc2sc(C(F)(F)F)nn12` ?
Result string: 4.26

Query string: Try this compound too: CC(COc1ccccc1)NC(=O)/C=C/c1c(-c2ccccc2Cl)nc2sc(C(F)(F)F)nn12 (racemic)
Result string: 4.03

Query string: Quick one: `O=C(/C=C/c1c(-c2cccc(Cl)c2)nc2sc(C(F)(F)F)nn12)NC1CC1`
Result string: 3.31

Query string: Now this one: `O=C(/C=C/c1c(-c2ccccc2Cl)nc2sc(C(F)(F)F)nn12)NCc1ccc(F)cc1`
Result string: 3.7

Query string: Now consider `O=Cc1c(-c2nccs2)nc2sc(C(F)(F)C(F)(F)F)nn12` and answer again.
Result string: 3.03

Query string: Now consider `O=C(O)/C=C/c1c(-c2ccccc2Cl)nc2sc(C(F)(F)C(F)(F)F)nn12` .
Result string: 3.19
